Tested on: MOLT-4 leukemia
Test: NCI-60 one-dose screen, 48 h
Settings: 10 µM unless noted
This is part of a sample that, as a whole, favours compounds with a hit. Of some 83,000 tested, about 20% had one in any assay. The source made the active and inactive calls. Rule for the calls: active = growth percent below 10; inactive = the rest.
Answer with one of the outcomes given here: True for active, False for inactive

Q) Which outcome was entered for the compound `CC(=O)Oc1cc(C)c(OC(C)=O)c(C)c1C` in this test?
A) False

Q) Which result was noted for this compound in the test: `CCOC(=O)c1ccncc1`
A) False

Q) Call for entry `COC(=O)c1nc(=S)[nH]c(C(=O)OC)c1C(=O)c1ccc(OC)cc1` :
A) False

Q) Could you please tell me the result logged for `OCCCc1ccccc1` in this assay?
A) False

Q) Name the outcome recorded for `CCNCc1ccccc1` in the assay.
A) False

Q) Recorded test outcome, item `Cc1cc(=NO)cc(C)n1O`
A) False

Q) What call does the record list for `COc1ccc(CCl)c(C)c1OC` ?
A) False

Q) Test call for this compound, please: CCN(CC)CCO/N=C1\CC(c2ccc(OC)c(OC)c2)Oc2ccccc21 (stereo not drawn)
A) False

Q) Hi, sorry to bother you, what did the test record for OC1CCCN(Cc2ccccc2)C1 (stereo not drawn) ?
A) False

Q) Please let me know the test result on file for `Cc1ccc(S(=O)(=O)n2ccnc2)cc1` .
A) False

Q) What call does the record list for `COc1ccc(/C=N/Nc2nc3ccccc3s2)cc1` ?
A) False

Q) Status in this test for `COC(=O)c1nc(N)nc(C(=O)OC)c1C(=O)c1cccc2ccccc12` ?
A) False

Q) Outcome logged for `O=C(O)c1ccc2c3ccc(C(=O)O)c4c(C(=O)O)ccc(c5ccc(C(=O)O)c1c25)c43` in this assay:
A) False

Q) Which outcome did this test record for the compound `O=COCCCc1ccccc1` ?
A) False

Q) Fill in: this test's call for COC(=O)C(Cc1cn(C(C)=O)c2ccccc12)P(=O)(OC)OC (stereo not drawn) is ___
A) False

Q) Answer briefly: the call reported for O=C1C2=C(Nc3cc(Cl)ccc3N2)OC1c1c[nH]c2ccc(COc3ccccc3)cc12 (stereo not drawn) in this assay.
A) False

Q) Which result was noted for this compound in the test: `COC(=O)c1nc(=S)[nH]c(C(=O)OC)c1C(=O)c1ccccc1`
A) False

Q) # fetch the recorded call for `CN(C=O)c1ccccc1` here
A) False

Q) In this assay, the call recorded for COCCCNC1=C(C#N)C(=O)NC(c2cccs2)S1 (stereo not drawn) was what?
A) False

Q) Short answer needed: outcome of this test for `O=C1Cc2ccccc2C(=O)N1` ?
A) False

Q) Could you please tell me the result logged for `C=CCN1C(=O)c2ccccc2C1=O` in this assay?
A) False

Q) Hi team, can someone confirm the assay call for O=[N+]([O-])c1ccc(NC(c2ccccc2)c2ccc3cccnc3c2O)cc1 (stereo not drawn) ?
A) True

Q) Please state the recorded outcome for this compound: `Cc1cc(Cl)nc(Nc2ccccc2)n1`
A) False

Q) Hey, what did the test say about `CCCCCCCCCCCCCCCCC(=O)O` ?
A) False

Q) Recorded test call requested for `C/C(CC(C)C)=N/NC(N)=S`
A) False

Q) Entry O=C1c2ccccc2C(c2ccccc2)C1c1ccccc1 (stereo not drawn) : call = ?
A) False

Q) Assay outcome for `CC(=O)c1cccc(OC(=O)c2ccccc2)c1` : what was it?
A) False

Q) // outcome(item) with item = `O=C1c2cccnc2-c2ncccc21`
A) False

Q) How did this test come out for `CS(=O)(=O)c1nsc(N)n1` ?
A) False

Q) What did this assay record as the result for `c1ccc2c[n+](Cc3ccc4ccccc4n3)ccc2c1` ?
A) False

Q) Tell me the recorded outcome of this test for `Cc1ccc(N)cc1S(=O)(=O)O` .
A) False

Q) Given `N#CC(=S)Nc1ccc(Cl)c(Cl)c1` , state the outcome it received in this test.
A) False

Q) Would you mind telling me which call this test gave `CCCC(=O)Oc1ccc2ccccc2c1` ?
A) False

Q) Field: outcome | Entry: CCOC(=O)c1ccc(N2C(=O)C(Cl)(c3ccccc3)C2c2ccco2)cc1 (stereo not drawn)
A) False

Q) Each compound tested received a call. Report the one for `O=C1C=CC(=O)N1Cc1ccco1` .
A) False

Q) Test call for this compound, please: COc1cc(C2c3cc4c(cc3C(OC(=O)C[n+]3ccccc3)C3COC(=O)C23)OCO4)cc(OC)c1OC (stereo not drawn)
A) False

Q) Outcome logged for `NC(=O)Cc1nc(O)cc(=O)[nH]1` in this assay:
A) False

Q) What did this assay record as the result for `Cc1c(Cl)cc(Cl)c(N)c1Cl` ?
A) False

Origin of measurements: PubChem BioAssay (NCI)
